# Test system: KBv200 cells
# EXPERIMENTAL PROTOCOL: Sensitizing effect of PA to conventional chemotherapeutic drugs (MTT)
# Type: cell-based, human
# MEASUREMENT CONTEXT: KBv200, IC50 without sensitizer / with sensitizer 10 μg/mL
MEASURED QUANTITY: RF (Ctrl/S), DDP
Write the number on its own, no unit after it.

Below, 2 compounds whose answers are already recorded.
CCC/C=C1\OC(=O)C2=C1CC[C@H]1C3C=C4C(=O)O/C(=C\CCC)[C@@]4(CC3)C21 (some centres unmarked) :: 2.622
CCCCC1OC(=O)C2=C1CCC=C2 (single isomer, unassigned) :: 8.063

input: Need RF (Ctrl/S), DDP of CCC/C=C1\OC(=O)C2=C1CCC=C2 , thanks.
output: 6.981

input: Fill in: RF (Ctrl/S), DDP of CCC/C=C1\OC(=O)C2=C1CCC1OC21 (single isomer, unassigned) is ___
output: 7.188

input: Requested read-out: RF (Ctrl/S), DDP. Entry: CCC/C=C1\OC(=O)C2=CC3CC[C@]21C1C2=C(CC[C@@H]31)C(CCCC)OC2=O (some centres unmarked)
output: 4.375

input: Which RF (Ctrl/S), DDP is listed for CCC/C=C1\OC(=O)C2=C1CCC(O)C2O (single isomer, unassigned) ?
output: 3.208

input: Given CCCCC1OC(=O)c2cccc(O)c21 (centres unmarked) , state its recorded RF (Ctrl/S), DDP.
output: 2.767

input: Dear colleague, I am looking for the recorded RF (Ctrl/S), DDP of the following compound: CCC/C=C1\OC(=O)C2=C1CCC1C(CCC)C3(OC(=O)C4=C3CCC=C4)C21 (centres unmarked)
output: 5.939
